Hi there, I'd appreciate the recorded Antibacterial Cx zone of inhibition for every entry that follows.
Tested on: Corynebacterium xerosis
protocol_details: Antibacterial assay zone of inhibition Cx
Assay type: cell-based
run_parameters: 1 mM
Give your result in millimeters as a bare value.

Per the records, this molecule ( Clc1ccc(OCc2nnc(-c3nc4ccccc4s3)o2)c(Cl)c1 [HGN-333] ) has Antibacterial Cx zone of inhibition equal to 0

Per the records, this molecule ( Clc1ccc(OCc2nnc(-c3nc4ccccc4s3)o2)cc1 [HGN-826] ) has Antibacterial Cx zone of inhibition equal to 0

Per the records, this molecule ( Clc1ccc(CCc2nnc(-c3nc4ccccc4s3)o2)c(Cl)c1 [HGN-824] ) has Antibacterial Cx zone of inhibition equal to 0

Per the records, this molecule ( Clc1ccc(OCc2nnc(-c3cc4ccccc4[nH]3)o2)c(Cl)c1 [HGN-810] ) has Antibacterial Cx zone of inhibition equal to 0

Per the records, this molecule ( Cc1cccc(OCc2nnc(-c3nc4ccccc4s3)o2)c1 [HGN-837] ) has Antibacterial Cx zone of inhibition equal to 17

Per the records, this molecule ( COc1ccc(OCc2nnc(-c3nc4ccccc4s3)o2)cc1 [HGN-833] ) has Antibacterial Cx zone of inhibition equal to 15

Per the records, this molecule ( Cc1ccc(OCc2nnc(-c3nc4ccccc4s3)o2)cc1 [HGN-825] ) has Antibacterial Cx zone of inhibition equal to 0

Per the records, this molecule ( Clc1cccc(OCc2nnc(-c3nc4ccccc4s3)o2)c1 [HGN-835] ) has Antibacterial Cx zone of inhibition equal to 0

Per the records, this molecule ( c1ccc(OCc2nnc(-c3nc4ccccc4s3)o2)cc1 [HGN-840] ) has Antibacterial Cx zone of inhibition equal to 0

Per the records, this molecule ( CC(C)(C)c1ccc(OCc2nnc(-c3nc4ccccc4s3)o2)cc1 [HGN-836] ) has Antibacterial Cx zone of inhibition equal to 11

Per the records, this molecule ( c1ccc(OCc2nnc(-c3cc4ccccc4[nH]3)o2)cc1 [HGN-811] ) has Antibacterial Cx zone of inhibition equal to 0

Per the records, this molecule ( Clc1ccc(OCc2nnc(-c3nc4ccccc4s3)o2)cc1Cl [HGN-834] ) has Antibacterial Cx zone of inhibition equal to 0

---

measurement_type: melting point

Per the records, this compound ( FC(F)(F)c1ccc(-c2nnc(-c3nc4ccccc4s3)o2)cc1 [HGN-337] ) has melting point equal to 145 to 148 °C

Per the records, this compound ( Cc1ccc(-c2nnc(-c3cc4ccccc4[nH]3)o2)cc1 [HGN-242] ) has melting point equal to 228 to 234 °C

Per the records, this compound ( COc1ccc(-c2nnc(-c3nc4ccccc4s3)o2)cc1 [HGN-336] ) has melting point equal to 167 to 169 °C

Per the records, this compound ( Clc1ccc(-c2nnc(-c3nc4ccccc4[nH]3)o2)cc1 [HGN-421] ) has melting point equal to 250 to 255 °C

Per the records, this compound ( c1ccc2[nH]c(-c3nnc(C4CCCC4)o3)cc2c1 [HGN-252] ) has melting point equal to 150 to 154 °C

Per the records, this compound ( COCc1nnc(-c2cc3ccccc3[nH]2)o1 [HGN-212] ) has melting point equal to 152 to 156 °C

Per the records, this compound ( c1ccc(-c2nnc(-c3cc4ccccc4[nH]3)o2)cc1 [HGN-208] ) has melting point equal to 254 to 257 °C

Per the records, this compound ( Cc1ccc(-c2nnc(-c3nc4ccccc4s3)o2)cc1 [HGN-338] ) has melting point equal to 155 to 160 °C

Per the records, this compound ( c1ccc2[nH]c(-c3nnc(C4CCCCC4)o3)cc2c1 [HGN-254] ) has melting point equal to 187 to 193 °C

Per the records, this compound ( Clc1ccc(-c2nnc(-c3cc4ccccc4[nH]3)o2)cc1 [HGN-213] ) has melting point equal to 265 to 270 °C

Per the records, this compound ( FC(F)(F)c1nnc(-c2cc3ccccc3[nH]2)o1 [HGN-211] ) has melting point equal to 182 to 184 °C

Per the records, this compound ( c1ccc2[nH]c(-c3nnc(C4CCC4)o3)cc2c1 [HGN-251] ) has melting point equal to 169 to 173 °C

Per the records, this compound ( CC(C)c1nnc(-c2cc3ccccc3[nH]2)o1 [HGN-240] ) has melting point equal to 164 to 170 °C

Per the records, this compound ( Clc1ccc(-c2nnc(-c3nc4ccccc4s3)o2)cc1 [HGN-339] ) has melting point equal to 161 to 163 °C

Per the records, this compound ( Cc1nnc(-c2cc3ccccc3[nH]2)o1 [HGN-209] ) has melting point equal to 232 to 234 °C

Per the records, this compound ( c1ccc(Cc2nnc(-c3cc4ccccc4[nH]3)o2)cc1 [HGN-221] ) has melting point equal to 211 to 215 °C

Per the records, this compound ( FC(F)(F)c1ccc(-c2nnc(-c3nc4ccccc4[nH]3)o2)cc1 [HGN-422] ) has melting point equal to 275 to 280 °C

Per the records, this compound ( CCc1nnc(-c2cc3ccccc3[nH]2)o1 [HGN-250] ) has melting point equal to 138 to 143 °C

Per the records, this compound ( CC(C)(C)c1nnc(-c2cc3ccccc3[nH]2)o1 [HGN-239] ) has melting point equal to 163 to 168 °C

Per the records, this compound ( c1ccc(CCc2nnc(-c3cc4ccccc4[nH]3)o2)cc1 [HGN-215] ) has melting point equal to 161 to 164 °C

Per the records, this compound ( Oc1c(Br)cc(Br)cc1-c1cc2ccccc2[nH]1 [HGN-340, 2,4-dibromo-6-(1H-indol-2-yl)phenol] ) has melting point equal to 104 to 110 °C

---

system_tested: UniProt P69834
Sequence (P69834 62-302): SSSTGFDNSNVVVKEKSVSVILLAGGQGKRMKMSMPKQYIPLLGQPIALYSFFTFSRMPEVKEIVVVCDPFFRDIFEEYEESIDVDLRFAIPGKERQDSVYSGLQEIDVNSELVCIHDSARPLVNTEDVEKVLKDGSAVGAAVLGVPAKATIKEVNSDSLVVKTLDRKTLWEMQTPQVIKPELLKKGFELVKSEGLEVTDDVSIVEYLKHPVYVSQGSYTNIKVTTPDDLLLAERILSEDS
protocol_details: University of Hamburg photometric enzymatic inhibition assay AtIspD
Type: biochemical
run_parameters: read-out: AtIspD IC50
measurement_type: IC50 (µM)
Give your result in µM as a bare value.

Reported UniProt P69834 IC50 for item Clc1ccc(-c2nnc(-c3nc4ccccc4[nH]3)o2)cc1 [HGN-421] was 88

Reported UniProt P69834 IC50 for item Clc1ccc(-c2nnc(-c3nc4ccccc4s3)o2)cc1 [HGN-339] was 158

Reported UniProt P69834 IC50 for item Clc1ccc(-c2nnc(-c3cc4ccccc4[nH]3)o2)cc1 [HGN-213] was 490

Reported UniProt P69834 IC50 for item c1ccc2[nH]c(-c3nnc(C4CCCCC4)o3)cc2c1 [HGN-254] was 322

Reported UniProt P69834 IC50 for item c1ccc(-c2ccc(-c3nnc(-c4cc5ccccc5[nH]4)o3)cc2)cc1 [HGN-288] was 255

---

Hi there, I'd appreciate the recorded melting point for every entry that follows.

Per the records, this compound ( `c1ccc2[nH]c(-c3nnco3)cc2c1` ) has melting point equal to 205 to 207 °C

Per the records, this compound ( `O=[N+]([O-])c1cc(-c2nnc(-c3nc4ccccc4s3)o2)cc([N+](=O)[O-])c1` ) has melting point equal to 180 to 185 °C

Per the records, this compound ( `Clc1cccc(-c2nnc(-c3cc4ccccc4[nH]3)o2)c1` ) has melting point equal to 202 to 207 °C

Per the records, this compound ( `Clc1ccc(OCc2nnc(-c3nc4ccccc4s3)o2)c(Cl)c1` ) has melting point equal to 163 to 165 °C

Per the records, this compound ( `FC(F)(F)c1ccc(-c2nnc(-c3cc4ccccc4[nH]3)o2)cc1` ) has melting point equal to 258 to 260 °C

Per the records, this compound ( `C(=C\c1nnc(-c2nc3ccccc3s2)o1)/c1ccccc1` ) has melting point equal to 202 to 204 °C

---

system_tested: UniProt:P62615
Sequence (P62615 whole entry): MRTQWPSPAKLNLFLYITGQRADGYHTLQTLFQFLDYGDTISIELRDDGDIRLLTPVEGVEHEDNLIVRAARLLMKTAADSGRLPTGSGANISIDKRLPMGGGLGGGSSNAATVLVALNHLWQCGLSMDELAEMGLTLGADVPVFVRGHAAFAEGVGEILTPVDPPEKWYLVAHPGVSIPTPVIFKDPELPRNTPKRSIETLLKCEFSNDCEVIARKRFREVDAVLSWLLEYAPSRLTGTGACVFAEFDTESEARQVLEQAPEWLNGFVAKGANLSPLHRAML
measurement_type: IC50 (µM)
Give your result in µM as a bare value.

Reported UniProt:P62615 IC50 for item Clc1ccc(OCc2nnc(-c3nc4ccccc4s3)o2)c(Cl)c1 [HGN-333] was 3

---

system_tested: UniProt:P9WKG9
Sequence (P9WKG9 whole entry): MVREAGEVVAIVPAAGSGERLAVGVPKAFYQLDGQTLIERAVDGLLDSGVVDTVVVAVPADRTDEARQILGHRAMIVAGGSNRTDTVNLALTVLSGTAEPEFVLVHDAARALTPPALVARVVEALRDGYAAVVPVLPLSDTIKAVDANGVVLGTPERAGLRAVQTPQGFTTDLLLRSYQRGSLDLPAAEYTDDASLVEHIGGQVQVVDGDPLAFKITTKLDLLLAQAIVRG
protocol_details: Thermal shift assay against MtIspD
Assay type: binding
Hi there, I'd appreciate the recorded MtIspD melting point change for every entry that follows.
Give your result in °C as a bare value.

Per the records, this compound ( `Cc1nnc(-c2cc3ccccc3[nH]2)o1` ) has MtIspD melting point change equal to 1.5

Per the records, this compound ( `CC(C)c1nnc(-c2cc3ccccc3[nH]2)o1` ) has MtIspD melting point change equal to 0.8

Per the records, this compound ( `COc1ccc(-c2nnc(-c3cc4ccccc4[nH]3)o2)cc1` ) has MtIspD melting point change equal to 0.0

Per the records, this compound ( `CCc1nnc(-c2cc3ccccc3[nH]2)o1` ) has MtIspD melting point change equal to 0.8

Per the records, this compound ( `c1ccc2[nH]c(-c3nnc(C4CCCCC4)o3)cc2c1` ) has MtIspD melting point change equal to 0.5

Per the records, this compound ( `Clc1ccc(-c2nnc(-c3nc4ccccc4[nH]3)o2)cc1` ) has MtIspD melting point change equal to 0.8

Per the records, this compound ( `c1ccc2[nH]c(-c3nnco3)cc2c1` ) has MtIspD melting point change equal to 1.5

Per the records, this compound ( `O=[N+]([O-])c1cc(-c2nnc(-c3nc4ccccc4s3)o2)cc([N+](=O)[O-])c1` ) has MtIspD melting point change equal to 0.0

Per the records, this compound ( `Clc1ccc(-c2nnc(-c3cc4ccccc4[nH]3)o2)cc1` ) has MtIspD melting point change equal to 0.8

Per the records, this compound ( `c1ccc(Cc2nnc(-c3cc4ccccc4[nH]3)o2)cc1` ) has MtIspD melting point change equal to 0.5
